assayed.target: CDK4 (Homo sapiens, UniProt P11802+Q16531)
procedure.text: CDK4 percentage degradation in Calu-1 cells (Table 6)
Assay type: cell-based
Parameters: Cells that express cyclin D1-3 and CDK4/6 proteins were treated with heterobifunctional compounds; endogenous in cells; host or cells: Calu-1
measurement.setup: 40 nM, 16 hours
Sequence (P11802 2-303 limits assumed): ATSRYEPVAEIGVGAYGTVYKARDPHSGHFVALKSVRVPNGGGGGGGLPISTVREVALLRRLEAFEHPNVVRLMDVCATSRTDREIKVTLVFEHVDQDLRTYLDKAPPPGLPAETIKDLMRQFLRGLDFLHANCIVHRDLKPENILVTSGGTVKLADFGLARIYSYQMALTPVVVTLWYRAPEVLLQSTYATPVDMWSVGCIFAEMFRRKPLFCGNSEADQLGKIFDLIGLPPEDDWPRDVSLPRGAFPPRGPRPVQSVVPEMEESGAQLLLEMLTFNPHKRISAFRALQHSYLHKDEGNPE
Sequence (P24385 whole entry partner): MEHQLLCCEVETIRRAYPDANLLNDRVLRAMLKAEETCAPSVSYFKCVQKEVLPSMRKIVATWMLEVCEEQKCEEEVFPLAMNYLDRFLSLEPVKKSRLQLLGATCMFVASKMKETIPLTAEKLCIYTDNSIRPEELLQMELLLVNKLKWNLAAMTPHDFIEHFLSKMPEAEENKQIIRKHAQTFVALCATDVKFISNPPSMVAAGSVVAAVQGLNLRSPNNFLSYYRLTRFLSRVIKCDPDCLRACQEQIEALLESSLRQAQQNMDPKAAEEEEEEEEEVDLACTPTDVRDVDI
Sequence (Q16531 2-1140 limits assumed): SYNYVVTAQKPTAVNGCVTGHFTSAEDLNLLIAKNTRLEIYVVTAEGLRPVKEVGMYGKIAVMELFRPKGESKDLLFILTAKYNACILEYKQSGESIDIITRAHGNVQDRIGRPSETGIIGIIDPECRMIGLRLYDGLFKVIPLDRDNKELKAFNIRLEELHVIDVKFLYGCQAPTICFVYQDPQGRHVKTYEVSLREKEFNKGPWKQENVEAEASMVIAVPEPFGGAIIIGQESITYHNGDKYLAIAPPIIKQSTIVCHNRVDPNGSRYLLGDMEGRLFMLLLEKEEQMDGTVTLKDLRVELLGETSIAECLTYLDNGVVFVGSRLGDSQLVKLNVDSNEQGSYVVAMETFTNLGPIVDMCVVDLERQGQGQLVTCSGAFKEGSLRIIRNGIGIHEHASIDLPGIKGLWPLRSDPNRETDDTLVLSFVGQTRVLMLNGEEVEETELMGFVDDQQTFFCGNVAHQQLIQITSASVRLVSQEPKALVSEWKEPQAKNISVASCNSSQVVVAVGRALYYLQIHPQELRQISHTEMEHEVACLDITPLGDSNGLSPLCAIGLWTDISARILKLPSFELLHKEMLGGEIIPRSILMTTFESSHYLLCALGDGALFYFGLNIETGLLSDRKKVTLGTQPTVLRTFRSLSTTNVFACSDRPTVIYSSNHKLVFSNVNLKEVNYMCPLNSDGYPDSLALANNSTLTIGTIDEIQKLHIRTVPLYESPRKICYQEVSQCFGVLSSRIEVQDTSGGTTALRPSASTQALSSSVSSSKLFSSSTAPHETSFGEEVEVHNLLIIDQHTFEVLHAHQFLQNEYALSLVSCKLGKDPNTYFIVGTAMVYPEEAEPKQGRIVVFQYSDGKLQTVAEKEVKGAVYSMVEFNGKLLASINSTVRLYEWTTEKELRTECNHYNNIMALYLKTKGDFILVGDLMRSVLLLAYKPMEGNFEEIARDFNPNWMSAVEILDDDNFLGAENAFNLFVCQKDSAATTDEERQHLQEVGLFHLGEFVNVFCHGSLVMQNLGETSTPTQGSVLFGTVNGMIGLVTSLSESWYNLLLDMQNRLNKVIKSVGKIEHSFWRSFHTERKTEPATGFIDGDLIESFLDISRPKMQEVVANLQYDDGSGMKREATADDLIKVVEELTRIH
For each of the compounds below, state its inhibition at 0.04 µM.

Past entries and their recorded results:
compound: CC(=O)c1c(C)c2cnc(Nc3ccc(N4CCN(CC(=O)NCCCCCNc5nc(NC(C)(C)C)ccc5C(=O)Nc5ccc(N(C)C)nn5)CC4)cn3)nc2n(C2CCCC2)c1=O [CPD-85]
assayed.target: CDK4 (Homo sapiens, UniProt P11802+Q16531)
result.value: < 30%
//
compound: CNc1ccc(C(=O)Nc2cccc(C#N)n2)c(NC2CC3(CC(NC(=O)CN4CCN(c5ccc(Nc6ncc7c(C)c(C(C)=O)c(=O)n(C8CCCC8)c7n6)nc5)CC4)C3)C2)n1 (stereo not drawn) [CPD-90]
assayed.target: CDK4 (Homo sapiens, UniProt P11802+Q16531)
result.value: < 30%

Q: inhibition at 0.04 µM for CNc1ccc(C(=O)Nc2ccc(N(C)C)nn2)c(NC2CN(CCNC(=O)CN3CCN(c4ccc(Nc5ncc6c(C)c(C(C)=O)c(=O)n(C7CCCC7)c6n5)nc4)CC3)C2)n1 [CPD-107] ?
A: < 30%

----------
assayed.target: CDK4 (Homo sapiens, UniProt P11802+Q16531)
procedure.text: CDK4 percentage degradation in Calu-1 cells (Table 6)
Type: cell-based
Set-up: Cells that express cyclin D1-3 and CDK4/6 proteins were treated with heterobifunctional compounds; endogenous in cells; host or cells: Calu-1
measurement.setup: 200 nM, 16 hours
For each of the compounds below, state its inhibition at 0.2 µM.

compound: CNc1ccc(C(=O)Nc2ccc(F)c(C3CC3)n2)c(NCCCCCNC(=O)CN2CCN(c3ccc(Nc4ncc5c(C)c(C(C)=O)c(=O)n(C6CCCC6)c5n4)nc3)CC2)n1 [CPD-113]
inhibition at 0.2 µM: 50 to 80%

Give one value of inhibition at 0.2 µM per listed compound.
1. CNc1ccc(C(=O)Nc2ccc(C3CC3)nn2)c(NCCCCCNC(=O)CN2CCN(c3ccc(Nc4ncc5c(C)c(C(C)=O)c(=O)n(C6CCCC6)c5n4)nc3)CC2)n1 [CPD-31]
2. CNc1ccc(C(=O)Nc2ccc(N(C)C)nn2)c(NC2CC3(C2)CC(OC(C)C(=O)N2CCN(c4ccc(Nc5ncc6c(C)c(C(C)=O)c(=O)n(C7CCCC7)c6n5)nc4)CC2)C3)n1 (centres unmarked) [CPD-189]
3. CNc1ccc(C(=O)Nc2ccc(C)c(OC)n2)c(NCCCCCNC(=O)CN2CCN(c3ccc(Nc4ncc5c(C)c(C(C)=O)c(=O)n(C6CCCC6)c5n4)nc3)CC2)n1 [CPD-116]
4. CNc1ccc(C(=O)Nc2ccn(C)n2)c(NCCCCCNC(=O)CN2CCN(c3ccc(Nc4ncc5c(C)c(C(C)=O)c(=O)n(C6CCCC6)c5n4)nc3)CC2)n1 [CPD-49]

A:
1. 50 to 80%
2. 50 to 80%
3. 30 to 50%
4. 50 to 80%

Give one value of inhibition at 0.2 µM per listed compound.
1. [2H]C([2H])([2H])Nc1ccc(C(=O)Nc2cc(C)on2)c(NC2CCN(C(=O)CN3CCN(c4ccc(Nc5ncc6c(C)c(C(C)=O)c(=O)n(C7CCCC7)c6n5)nc4)CC3)CC2)n1 [CPD-231]
2. CC(=O)c1c(C)c2cnc(Nc3ccc(N4CCN(CCC(=O)N5CC6(CC(Nc7nc(NC(C)C)ccc7C(=O)Nc7cn(C)c(C8CC8)n7)C6)C5)CC4)cn3)nc2n(C2CCCC2)c1=O [CPD-323]
3. CNc1ccc(C(=O)Nc2ccc(OC)nn2)c(NCCCCCNC(=O)CN2CCN(c3ccc(Nc4ncc5c(C)c(C(C)=O)c(=O)n(C6CCCC6)c5n4)nc3)CC2)n1 [CPD-108]
4. CC(=O)c1c(C)c2cnc(Nc3ccc(N4CCN(C(CC(=O)N5CC6(CC(Nc7nc(NC(C)C)ccc7C(=O)Nc7ccc(N(C)C)nn7)C6)C5)C(F)(F)F)CC4)cn3)nc2n(C2CCCC2)c1=O (centres unmarked) [CPD-367]
5. CNc1ccc(C(=O)Nc2ccn(C)c2)c(NC2CC3(CC(NC(=O)CN4CCN(c5ccc(Nc6ncc7c(C)c(C(C)=O)c(=O)n(C8CCCC8)c7n6)nc5)CC4)C3)C2)n1 (centres unmarked) [CPD-183]
6. [2H]C([2H])([2H])Nc1ccc(C(=O)Nc2ccc(N(C)C)nn2)c(NCCCCCNC(=O)CN2CCN(c3ccc(Nc4ncc5c(C)c(C(C)=O)c(=O)n(C6CCCC6)c5n4)nc3)CC2)n1 [CPD-66]

A:
1. 50 to 80%
2. < 30%
3. 30 to 50%
4. < 30%
5. 50 to 80%
6. 50 to 80%

----------
assayed.target: CDK4 (Homo sapiens, UniProt P11802+Q16531)
procedure.text: HiBiT detection of HiBiT-tagged CDK4 protein level in MCF7 cells, 16 hours (Table 8)
Assay type: cell-based
Parameters: expressed in transfected cells; host or cells: MCF7
measurement.setup: 100 nM, MCF7 cells stably expressing HiBiT tagged target proteins, read-out: % CDK4 Relative Level (100 nM)
Sequence (P11802 whole entry): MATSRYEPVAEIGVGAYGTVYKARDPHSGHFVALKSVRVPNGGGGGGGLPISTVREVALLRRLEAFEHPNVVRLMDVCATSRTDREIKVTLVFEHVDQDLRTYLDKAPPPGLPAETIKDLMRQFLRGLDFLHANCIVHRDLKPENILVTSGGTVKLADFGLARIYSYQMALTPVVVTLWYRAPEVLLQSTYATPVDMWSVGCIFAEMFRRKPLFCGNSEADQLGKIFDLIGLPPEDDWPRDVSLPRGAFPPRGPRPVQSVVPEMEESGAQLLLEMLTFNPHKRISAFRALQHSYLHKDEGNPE
Sequence (P24385 whole entry partner): as the sequence (P24385 whole entry partner) above
Sequence (Q16531 2-1140 limits assumed): as the sequence (Q16531 2-1140 limits assumed) above
For each of the compounds below, state its activity at 0.1 µM.

Past entries and their recorded results:
compound: [2H]C([2H])([2H])Nc1ccc(C(=O)Nc2cccc(OC)n2)c(NC2CC3(C2)CN(C(=O)CC(N2CCN(c4ccc(Nc5ncc6c(C)c(C(C)=O)c(=O)n(C7CCCC7)c6n5)nc4)CC2)C(F)(F)F)C3)n1 (centres unmarked)
result.value: 55 to 85%
//
compound: CNc1ccc(C(=O)Nc2ccc(N(C)C)nn2)c(NCCOCCNC(=O)CN2CCN(Cc3ccc(Nc4ncc(F)c(-c5cc(F)c6nc(C)n(C(C)C)c6c5)n4)nc3)CC2)n1
result.value: > 85%
//
compound: CCc1ccc(C(=O)Nc2ccc(N(C)C)nn2)c(N[C@H]2CC[C@H](C(=O)N3CCC(N4CCN(C5CCC(Nc6ncc7c(C)c(C(C)=O)c(=O)n(C8CCCC8)c7n6)CC5)CC4)C3)CC2)n1 (some centres unmarked)
result.value: 55 to 85%

Give one value of activity at 0.1 µM per listed compound.
1. CC(=O)c1c(C)c2cnc(Nc3ccc(N4CCN(C5CCN(C(=O)C67CC(Nc8nc(NC(C)C)ccc8C(=O)Nc8cc(C)n(C)n8)(C6)C7)C5)CC4)cn3)nc2n(C2CCCC2)c1=O (centres unmarked)
2. CNc1ccc(C(=O)Nc2ccc(N(C)C)nn2)c(NCCCCCCCNC(=O)CN2CCN(c3ccc(Nc4ncc5cc6n(c5n4)C4(CCCCC4)CNC6=O)nc3)CC2)n1

A:
1: 55 to 85%; 2: > 85%

----------
assayed.target: CDK4 (Homo sapiens, UniProt P11802+Q16531)
procedure.text: HiBiT detection of HiBiT-tagged CDK4 protein level in MCF7 cells, 16 hours (Table 8)
Format: cell-based
Set-up: expressed in transfected cells; host or cells: MCF7
measurement.setup: 100 nM, MCF7 cells stably expressing HiBiT tagged target proteins, read-out: % CDK4 Relative Level (100 nM)
For each of the molecules below, state its activity at 0.1 µM.

Past entries and their recorded results:
molecule: CC(=O)c1c(C)c2cnc(Nc3ccc(CN4CCN(C(C)C(=O)NC5CC6(C5)CC(Nc5nc(NC(C)C)ccc5C(=O)Nc5ccc(N(C)C)nn5)C6)CC4)cn3)nc2n(C2CCCC2)c1=O (centres unmarked)
result.value: 55 to 85%

molecule: CC(=O)c1c(C)c2cnc(Nc3ccc(CN4CCN(CC(=O)NC5CC6(C5)CC(Nc5nc(C(C)C)ccc5C(=O)Nc5ccc(N(C)C)nn5)C6)CC4)cn3)nc2n(C2CCCC2)c1=O (centres unmarked)
result.value: 55 to 85%

molecule: CC(=O)c1c(C)c2cnc(Nc3ccc(N4CCC(N(C)CC(=O)N5CC6(CC(Nc7nc(NC(C)C)ccc7C(=O)Nc7ccc(N(C)C)nn7)C6)C5)CC4)cn3)nc2n(C2CCCC2)c1=O
result.value: 55 to 85%

Give one value of activity at 0.1 µM per listed molecule.
1. CNc1ccc(C(=O)Nc2ccc(N(C)C)nn2)c(NCCCCCNC(=O)CN2CCN(c3ccc(Nc4ncc5cc6n(c5n4)C4(CCCCC4)CNC6=O)nc3)CC2)n1
2. CNc1ccc(C(=O)Nc2ccc(N(C)C)nn2)c(NCCCCCC(=O)NC2CCC(Nc3ncc4ccc(=O)n(C5CCCC5)c4n3)CC2)n1 (centres unmarked)

A:
1: 55 to 85%; 2: > 85%

----------
assayed.target: CDK4 (Homo sapiens, UniProt P11802+Q16531)
procedure.text: HiBiT detection of HiBiT-tagged CDK4 protein level in MCF7 cells, 16 hours (Table 8)
Format: cell-based
Set-up: expressed in transfected cells; host or cells: MCF7
measurement.setup: 10 nM, MCF7 cells stably expressing HiBiT tagged target proteins, read-out: % CDK4 Relative Level (10 nM)
readout.type: activity at 0.01 µM

Past entries and their recorded results:
compound: CC(=O)c1c(C)c2cnc(Nc3ccc(N4CCN(C(C)CC(=O)N5CC6(CC(Nc7nc(NC(C)C)ccc7C(=O)Nc7ccc(N(C)C)nn7)C6)C5)CC4)cn3)nc2n(C2CCCC2)c1=O (stereo not drawn)
assayed.target: CDK4 (Homo sapiens, UniProt P11802+Q16531)
activity at 0.01 µM: 55 to 85%
//
compound: CNc1ccc(C(=O)Nc2ccc(N(C)C)nn2)c(NCCCCNC(=O)CN2CCN(c3ccc(Nc4ncc5cc(C(=O)N(C)C)n(C6CCCC6)c5n4)nc3)CC2)n1
assayed.target: CDK4 (Homo sapiens, UniProt P11802+Q16531)
activity at 0.01 µM: 55 to 85%
//
compound: CNc1ccc(C(=O)Nc2ccc(N(C)C)nn2)c(NCCCCCNC(=O)CN2CCN(c3ccc(Nc4ncc5cc(C(=O)N(C)C)n(C6CCCC6)c5n4)nc3)CC2)n1
assayed.target: CDK4 (Homo sapiens, UniProt P11802+Q16531)
activity at 0.01 µM: 55 to 85%
//
compound: CNc1ccc(C(=O)Nc2ccc(N(C)C)nn2)c(NCCCNC(=O)CN2CCN(c3ccc(Nc4ncc5cc6n(c5n4)C4(CCCCC4)CNC6=O)nc3)CC2)n1
assayed.target: CDK4 (Homo sapiens, UniProt P11802+Q16531)
activity at 0.01 µM: > 85%
//
compound: CNc1ccc(C(=O)Nc2ccc(N(C)C)nn2)c(NCCCCCCCNC(=O)CN2CCN(c3ccc(Nc4ncc5cc6n(c5n4)C4(CCCCC4)CNC6=O)nc3)CC2)n1
assayed.target: CDK4 (Homo sapiens, UniProt P11802+Q16531)
activity at 0.01 µM: > 85%

Now, please, on to the next compound.
Q: activity at 0.01 µM for CC(=O)c1c(C)c2cnc(Nc3ccc(CN4CCN(CC(=O)NC5CCC(Nc6nc(NC(C)C)ccc6C(=O)Nc6ccc(N(C)C)nn6)C5)CC4)cn3)nc2n(C2CCCC2)c1=O (stereo not drawn) ?
A: > 85%
